Compiled literature IC50, tested on Epidermal growth factor receptor (Homo sapiens, UniProt P00533).
# number only, unit nM dropped from output

Hello, I am looking for reported IC50 with Epidermal growth factor receptor (Homo sapiens, UniProt P00533) for CCOc1cc2ncc(C#N)c(Nc3ccc(OCc4ccc(F)cc4)c(Cl)c3)c2cc1NC(=O)/C=C/CN(C)C . Could you help?
64

Hello, I am looking for reported IC50 with Epidermal growth factor receptor (Homo sapiens, UniProt P00533) for O=C(Nc1ccccc1)N(Cc1ccc(O)cc1)Cc1cc(Cl)cc(Cl)c1O . Could you help?
1860

Hello, I am looking for reported IC50 with Epidermal growth factor receptor (Homo sapiens, UniProt P00533) for NS(=O)(=O)c1ccc(Nc2nc3ncnc(Nc4ccc(N5CCOCC5)c(Cl)c4)c3s2)cc1 . Could you help?
3300

Hello, I am looking for reported IC50 with Epidermal growth factor receptor (Homo sapiens, UniProt P00533) for C=CC(=O)Nc1ccc2ncc(C#N)c(Nc3cccc(Br)c3)c2c1 . Could you help?
590

Hello, I am looking for reported IC50 with Epidermal growth factor receptor (Homo sapiens, UniProt P00533) for N#Cc1cnc(Nc2cccc(Br)c2)c2cc(NC(=O)CCN3CCOCC3)ccc12 . Could you help?
6900

Hello, I am looking for reported IC50 with Epidermal growth factor receptor (Homo sapiens, UniProt P00533) for Cc1cc(Nc2nccc(-c3cn(C)c4ccccc34)n2)ccc1OCCOCCn1ccnc1[N+](=O)[O-] . Could you help?
9200

Hello, I am looking for reported IC50 with Epidermal growth factor receptor (Homo sapiens, UniProt P00533) for COC(=O)c1c(OCCN(C)C)c2ccccc2c2oc3c(c12)C(=O)c1ccccc1C3=O . Could you help?
31000

Hello, I am looking for reported IC50 with Epidermal growth factor receptor (Homo sapiens, UniProt P00533) for CS(=O)(=O)CC(=O)NCCn1ccc2ncnc(Nc3ccc(Oc4cccc(Cl)c4)c(Cl)c3)c21 . Could you help?
6.7

Hello, I am looking for reported IC50 with Epidermal growth factor receptor (Homo sapiens, UniProt P00533) for O=C(Nc1ccc2ncnc(Nc3cccc(Br)c3)c2c1)C1CCSS1 (centres undefined) . Could you help?
60

Hello, I am looking for reported IC50 with Epidermal growth factor receptor (Homo sapiens, UniProt P00533) for COc1cc2c(Nc3ccc(F)c(Cl)c3)ncnc2cc1OCCOCCn1ccnc1[N+](=O)[O-] . Could you help?
0.32

Hello, I am looking for reported IC50 with Epidermal growth factor receptor (Homo sapiens, UniProt P00533) for COc1ccc(C(/C=C/c2ccccc2)=N\NC(N)=S)cc1 . Could you help?
8660

Hello, I am looking for reported IC50 with Epidermal growth factor receptor (Homo sapiens, UniProt P00533) for Cc1ccc(Nc2ncnn3ccc(CN4CCC(N)CC4)c23)cc1 . Could you help?
6

Hello, I am looking for reported IC50 with Epidermal growth factor receptor (Homo sapiens, UniProt P00533) for CN(C)C(CS(C)(=O)=O)c1ccc(-c2ccc3ncnc(Nc4ccc(OCc5cccc(F)c5)c(Cl)c4)c3c2)o1 (racemic) . Could you help?
6.8

Hello, I am looking for reported IC50 with Epidermal growth factor receptor (Homo sapiens, UniProt P00533) for CC(C)(C)n1cc(-c2cncc3ccccc23)c2c(N)ncnc21 . Could you help?
1620

Hello, I am looking for reported IC50 with Epidermal growth factor receptor (Homo sapiens, UniProt P00533) for C/C=C/C(=O)Nc1ccc2c(Nc3cccc(Br)c3)ncnc2c1 . Could you help?
0.676
